These data points were gathered from patent US8846951B2.

# system: 5HT2B receptors (Homo sapiens, UniProt P41595)
# Construct: expressed in transfected cells; host or cells: CHO-K1 cells
# Sequence (P41595 whole entry): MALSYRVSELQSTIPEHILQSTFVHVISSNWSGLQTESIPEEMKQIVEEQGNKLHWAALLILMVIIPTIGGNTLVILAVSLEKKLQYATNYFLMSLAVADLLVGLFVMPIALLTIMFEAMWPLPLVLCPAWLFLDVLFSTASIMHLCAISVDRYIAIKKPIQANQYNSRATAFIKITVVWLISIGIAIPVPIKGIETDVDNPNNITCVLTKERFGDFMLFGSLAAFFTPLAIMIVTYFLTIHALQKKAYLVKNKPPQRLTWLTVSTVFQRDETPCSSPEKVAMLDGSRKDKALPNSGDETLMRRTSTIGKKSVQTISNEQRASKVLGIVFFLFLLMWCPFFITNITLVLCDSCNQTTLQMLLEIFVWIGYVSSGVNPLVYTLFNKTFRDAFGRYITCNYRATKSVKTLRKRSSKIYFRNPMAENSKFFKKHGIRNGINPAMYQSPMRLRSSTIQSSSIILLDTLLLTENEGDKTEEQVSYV
# measurement description: Human 5-HT2B functional high throughput screening assay in CHO-K1 cells (calcium flux)
# Format: cell-based
# condition info: 5-HT2B; maximum functional response as percentage relative to the effect of serotonin
# Procedure: (iii) Human 5-HT2C and 5-HT2B Functional High Throughput Screening Assays in CHO-K1 Cells […] After incubation, the cell plates were transferred to FLIPR™ (MDS) and their fluorescence measurements were read at an excitation wavelength of 480 nm and an emission wavelength of 530 nm at 25° C. The baseline fluorescence was measured for the first 10 seconds and then 15 μL of 4× concentration of serotonin/test compound was added to the cells. […]
observation type: Emax

{"compound": "CC(=O)c1cccc(-c2ccc3c(c2)C(=O)N(C)C[C@@H]2CNC[C@@H]32)c1 (relative stereo) [Example 187]", "system": "5HT2B receptors (Homo sapiens, UniProt P41595)", "observation type": "Emax", "result": "inactive"}
{"compound": "CN1C[C@H]2CNC(=O)c3cc(-c4ccccc4)ccc3[C@@H]2C1 (relative stereo) [Example 86]", "system": "5HT2B receptors (Homo sapiens, UniProt P41595)", "observation type": "Emax", "result": "inactive"}
{"compound": "CN1C[C@H]2CNC(=O)c3cc(-c4ccc(F)c(F)c4)ccc3[C@@H]2C1 (relative stereo) [Example 78]", "system": "5HT2B receptors (Homo sapiens, UniProt P41595)", "observation type": "Emax", "result": "inactive"}
{"compound": "C[C@@H](Oc1ccc2c(c1)C(=O)NC[C@@H]1CNC[C@@H]21)c1ccccc1 (mixture of isomers) [Example 150]", "system": "5HT2B receptors (Homo sapiens, UniProt P41595)", "observation type": "Emax", "result": "inactive"}

====

# system: UniProt:P28335
# Sequence (P28335 33-458): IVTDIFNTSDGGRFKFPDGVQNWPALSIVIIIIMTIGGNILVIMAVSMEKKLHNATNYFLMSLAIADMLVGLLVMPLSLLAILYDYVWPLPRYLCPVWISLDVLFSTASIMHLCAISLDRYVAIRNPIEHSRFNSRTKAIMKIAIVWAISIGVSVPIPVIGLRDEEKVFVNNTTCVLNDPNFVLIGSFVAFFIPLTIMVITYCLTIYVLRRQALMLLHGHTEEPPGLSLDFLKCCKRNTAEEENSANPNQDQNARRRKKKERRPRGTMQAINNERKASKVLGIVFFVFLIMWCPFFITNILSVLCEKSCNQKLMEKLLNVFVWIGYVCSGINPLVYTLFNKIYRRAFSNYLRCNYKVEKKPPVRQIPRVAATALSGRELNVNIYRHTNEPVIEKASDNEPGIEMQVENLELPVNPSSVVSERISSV
# measurement description: Human 5-HT2C receptor radioligand binding assay (agonist site, [125I]DOI)
# condition info: 5-HT2c agonist site; transfected CHO cell membranes; 0.2 nM [125I](±)DOI
observation type: Ki (nM)
The response must be a number in nM with no trailing unit.

Prompt: Given the compound O=C1NC[C@@H]2CNC[C@H]2c2ccc(Cl)cc21 (relative stereo) , what is its reported Ki?
Response: 11

Prompt: Given the compound O=S(=O)(c1ccc(F)c(Cl)c1)N1Cc2ccccc2[C@@H]2CN(Cc3ccccc3)C[C@H]2C1 (relative stereo) , what is its reported Ki?
Response: 590

Prompt: Given the compound O=S(=O)(c1cccc(Cl)c1)N1Cc2ccccc2[C@@H]2CN(Cc3ccccc3)C[C@H]2C1 (relative stereo) , what is its reported Ki?
Response: 260

Prompt: Given the compound O=C1NC[C@@H]2CNC[C@H]2c2cccc(F)c21 (single isomer, unassigned) [Example 60] , what is its reported Ki?
Response: 44

====

# system: 5HT2B receptors (Homo sapiens, UniProt P41595)
# Construct: expressed in transfected cells; host or cells: CHO-K1 cells
# measurement description: Human 5-HT2B functional high throughput screening assay in CHO-K1 cells (calcium flux)
# Type: cell-based
# condition info: CHO-K1; 5-HT2B; maximum functional response as percentage relative to the effect of serotonin; read-out: Emax
# Procedure: (iii) Human 5-HT2C and 5-HT2B Functional High Throughput Screening Assays in CHO-K1 Cells […] After incubation, the cell plates were transferred to FLIPR™ (MDS) and their fluorescence measurements were read at an excitation wavelength of 480 nm and an emission wavelength of 530 nm at 25° C. The baseline fluorescence was measured for the first 10 seconds and then 15 μL of 4× concentration of serotonin/test compound was added to the cells. […]
observation type: Emax (%)
The response must be a number in % with no trailing unit.

// worked examples, Emax included
{"compound": "COc1cccc(CN2C[C@H]3CNC(=O)c4ccccc4[C@@H]3C2)c1 (relative stereo)", "observation type": "Emax", "quantitative readout": 55}
{"compound": "N#Cc1cccc(-c2ccc3c(c2)C(=O)NC[C@@H]2CNC[C@@H]32)c1 (relative stereo)", "observation type": "Emax", "quantitative readout": 20}
{"compound": "O=S(=O)(c1ccc(OC(F)F)cc1)N1Cc2cccnc2[C@@H]2CNC[C@H]2C1 (relative stereo)", "observation type": "Emax", "quantitative readout": 25}

Prompt: Given the compound Cc1c(Cl)cccc1S(=O)(=O)N1Cc2cccnc2[C@@H]2CNC[C@H]2C1 (relative stereo) , what is its reported Emax?
Response: 40

Prompt: Given the compound N#Cc1ccccc1S(=O)(=O)N1Cc2cccnc2[C@@H]2CNC[C@H]2C1 (relative stereo) , what is its reported Emax?
Response: 10
